Data provenance is patent US6376546B1.

- Tested on: anti-OVA-IgE antibody production
- Test description: Suppressive effect on mouse in vivo anti-OVA-IgE antibody production
- Run conditions: po, 336 h, BALB/c mice immunized with OVA on aluminium hydroxide gel, 100 mg/kg orally once a day for 5 days, serum on day 14, PCA reaction in Wistar rats, read-out: Suppressive rate for IgE antibody production (%)
Recorded endpoint: inhibition in vivo at 100 mg/kg
Answer shape: numeric part, then the unit.

Bench note, anti-OVA-IgE antibody production: CCC(O)COc1ccc(CCC(=O)O)cc1-c1ccccc1 (stereo not shown) , inhibition in vivo at 100 mg/kg reads 58.9%

Here CCCCCOc1ccc(CCCC(=O)O)cc1-c1ccccc1 was tested on anti-OVA-IgE antibody production, and its inhibition in vivo at 100 mg/kg came to 49.8%

O=C(O)CCc1ccc(OCC2CCCCC2)c(-c2ccc(O)cc2)c1 on anti-OVA-IgE antibody production gives inhibition in vivo at 100 mg/kg = 45.5%

Reported inhibition in vivo at 100 mg/kg (anti-OVA-IgE antibody production) for entry O=C(O)CCCOc1ccc(CCCC(=O)O)cc1-c1ccccc1 is 64.6%

Tested on anti-OVA-IgE antibody production: CCCCOc1c(NC(C)=O)cc(CCCC(=O)O)cc1-c1ccccc1 . Observed inhibition in vivo at 100 mg/kg: 64.2%

Field inhibition in vivo at 100 mg/kg (anti-OVA-IgE antibody production), entry O=C(O)CCc1ccc(OCC(=O)O)c(-c2ccccc2)c1 : 50.8%

Value (inhibition in vivo at 100 mg/kg, anti-OVA-IgE antibody production) for record CC(C)COc1ccc(CCCC(=O)O)cc1-c1ccccc1 = 55.7%

For CCCCOc1ccc(-c2ccccc2)cc1CCCC(=O)O [Control(6), reference compound] on anti-OVA-IgE antibody production, measured inhibition in vivo at 100 mg/kg was 7.3%

# CC1(C)CCC(C)(C)c2cc(COc3ccc(C(=O)O)cc3-c3ccccc3)ccc21 [Control(3), reference compound] with anti-OVA-IgE antibody production: inhibition in vivo at 100 mg/kg is -2.8%

Observed inhibition in vivo at 100 mg/kg, anti-OVA-IgE antibody production, O=C(O)CCc1ccc(OCC2CCCCC2)c(-c2ccccc2)c1 : 62%
